Just for reference, patent US7511041B2 is where these values come from.

# tgt: Recombinant human PI3Kγ (full length human PI3K p110γ) (Homo sapiens)
# Construct: full length human PI3K p110γ fused with a His6-tag at the C-terminus; His6 (C); purchased ALEXIS BIOCHEMICALS #201-055-C010; host or cells: S. frugiperda 9 insect cells
# measurementDescription: Kinase assay of PI3Kγ (solid-phase lipid kinase assay)
# Format: biochemical
# assayConditions: in vitro PI3K-γ inhibitory activity, class symbols; read-out: in vitro PI3K-gamma
outcomeMeasure: IC50

Cl.O=C(NC1=Nc2ccccc2C2=NCCN12)c1cccs1
< 100 nM
COc1cc(OC)c2c(c1)C1=NCCN1C(NC(=O)c1cccnc1)=N2.Cl
100 to 500 nM
O=C(NC1=Nc2ccccc2C2=NCCN12)c1cncc(O)c1
< 100 nM
COc1cccc2c1N=C(NC(=O)c1cccnc1C)N1CCN=C21
100 to 500 nM

Query: Reported IC50 for Recombinant human PI3Kγ (full length human PI3K p110γ) (Homo sapiens), given `Cc1ccsc1C(=O)NC1=Nc2ccccc2C2=NCCN12.Cl` ?
Reply: 100 to 500 nM

* * *

# tgt: Recombinant human PI3Kγ (full length human PI3K p110γ) (Homo sapiens, UniProt P48736)
# Construct: full length human PI3K p110γ fused with a His6-tag at the C-terminus; His6 (C); purchased ALEXIS BIOCHEMICALS #201-055-C010; host or cells: S. frugiperda 9 insect cells
# Sequence (P48736 whole entry, the tested form may be a part): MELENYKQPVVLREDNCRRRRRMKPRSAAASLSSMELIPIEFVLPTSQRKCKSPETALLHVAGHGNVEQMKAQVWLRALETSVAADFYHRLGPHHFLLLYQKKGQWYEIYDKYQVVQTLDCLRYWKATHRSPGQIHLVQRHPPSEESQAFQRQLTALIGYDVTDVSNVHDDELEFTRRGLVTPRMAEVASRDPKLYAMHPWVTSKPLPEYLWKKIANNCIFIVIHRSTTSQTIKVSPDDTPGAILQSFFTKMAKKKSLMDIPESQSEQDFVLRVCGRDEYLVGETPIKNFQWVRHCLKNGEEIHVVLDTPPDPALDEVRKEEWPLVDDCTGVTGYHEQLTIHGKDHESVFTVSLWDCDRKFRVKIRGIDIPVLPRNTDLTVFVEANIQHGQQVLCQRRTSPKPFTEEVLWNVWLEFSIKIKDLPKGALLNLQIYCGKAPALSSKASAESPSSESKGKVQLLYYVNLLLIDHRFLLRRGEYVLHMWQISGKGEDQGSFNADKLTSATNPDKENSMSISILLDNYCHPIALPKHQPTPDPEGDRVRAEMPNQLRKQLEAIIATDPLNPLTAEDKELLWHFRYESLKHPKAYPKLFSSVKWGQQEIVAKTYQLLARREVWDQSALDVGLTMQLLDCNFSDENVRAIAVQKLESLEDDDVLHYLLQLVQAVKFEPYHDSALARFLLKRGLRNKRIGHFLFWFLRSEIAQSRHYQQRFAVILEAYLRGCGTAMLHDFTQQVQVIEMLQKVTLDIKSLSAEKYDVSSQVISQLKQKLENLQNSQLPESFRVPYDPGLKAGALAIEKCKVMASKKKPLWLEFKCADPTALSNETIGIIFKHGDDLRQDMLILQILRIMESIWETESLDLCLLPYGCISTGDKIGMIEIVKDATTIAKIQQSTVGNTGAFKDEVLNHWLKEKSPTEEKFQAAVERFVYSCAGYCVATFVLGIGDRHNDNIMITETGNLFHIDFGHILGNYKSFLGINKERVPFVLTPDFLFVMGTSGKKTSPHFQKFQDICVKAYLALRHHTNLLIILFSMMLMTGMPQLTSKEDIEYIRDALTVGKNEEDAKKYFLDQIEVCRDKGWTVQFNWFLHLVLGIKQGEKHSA
# measurementDescription: Kinase assay of PI3Kγ (solid-phase lipid kinase assay)
# Type: biochemical
# assayConditions: Table 1, isozyme not given; read-out: in vitro
Consider the following compounds; for each one, report its IC50.

COc1ccc2c(c1OCCN1CCOCC1)N=C(/C=C(\O)c1ccc(NC(C)=O)nc1)N1CCN=C21.Cl
< 100 nM
O=[N+]([O-])c1cc(/C(O)=C/C2=Nc3ccccc3C3=NCCN23)cs1
> 2000 nM
O/C(=C\C1=Nc2cc(N3CCOCC3)ccc2C2=NCCN12)c1cccnc1
100 to 500 nM
Cc1cccc2c1N=C(/C=C(\O)c1ccc3[nH]cnc3c1)N1CCN=C21.Cl
< 100 nM
O/C(=C\C1=Nc2c(Cl)cccc2C2=NCCN12)c1cccnc1
100 to 500 nM
COc1cc2c(cc1OC)C1=NCCN1C(/C=C(\O)c1ccc(Cl)nc1)=N2
100 to 500 nM

Go through the items and report each one's IC50.
1. Cl.O/C(=C\C1=Nc2ccccc2C2=NCCN12)c1ccsc1
2. COc1c(OCC(=O)O)ccc2c1N=C(/C=C(\O)c1cccnc1)N1CCN=C21.Cl

Reply:
1: < 100 nM; 2: < 100 nM

* * *

# tgt: Recombinant human PI3Kγ (full length human PI3K p110γ) (Homo sapiens, UniProt P48736)
# Construct: full length human PI3K p110γ fused with a His6-tag at the C-terminus; His6 (C); purchased ALEXIS BIOCHEMICALS #201-055-C010; host or cells: S. frugiperda 9 insect cells
# measurementDescription: Kinase assay of PI3Kγ (solid-phase lipid kinase assay)
# Assay type: biochemical
# assayConditions: in vitro PI3K-γ inhibitory activity, class symbols; read-out: in vitro PI3K-gamma
Field: IC50. Provide a value for each of the compounds that follow.

Known results for compounds:
Cc1nc2ccccn2c1C(=O)NC1=Nc2ccccc2C2=NCCN12
100 to 500 nM
COc1ccc2c(c1)N=C(NC(=O)c1cccnc1)N1CCN=C21
100 to 500 nM
COc1cc2c(c(OC)c1C)N=C(NC(=O)c1ccc3[nH]cnc3c1)N1CCN=C21
100 to 500 nM

Each compound below has a reported value. Please supply its IC50.
1. Cl.O=C(NC1=Nc2c(cccc2C(F)(F)F)C2=NCCN12)c1cccnc1
2. COc1cc2c(c(OC)c1C)N=C(NC(=O)c1ccc(NC(C)=O)nc1)N1CCN=C21
3. CCn1nc(C)cc1C(=O)NC1=Nc2cc(N3CCOCC3)ccc2C2=NCCN12

Reply:
["< 100 nM", "100 to 500 nM", "100 to 500 nM"]

* * *

outcomeMeasure: melting point (°C)
Numbers only, in °C.

Below, 2 molecules whose answers are already recorded.
CC(=O)Nc1ccc(/C(O)=C/C2=Nc3cc(N4CCOCC4)ccc3C3=NCCN23)cn1.Cl
246
O=C(NC1=Nc2ccc([N+](=O)[O-])cc2C2=NCCN12)c1cccnc1.O=C(O)C(F)(F)F
224

Query: I would be grateful if you could share the reported melting point for `COc1cc2c(cc1OC)C1=NCCN1C(/C=C(\O)c1sc(C)nc1C)=N2` .
Reply: 292

* * *

Could you please report measured melting point for the items listed next?

Would you please look over these solved cases?
COc1ccc(C(=O)NC2=Nc3ccccc3C3=NCCN23)c(OC)n1.Cl
210 °C (dec.)
Nc1cncc(C(=O)NC2=Nc3ccccc3C3=NCCN23)c1.O=C(O)C(F)(F)F
220 °C (dec.)
O/C(=C\C1=Nc2cc(Cl)ccc2C2=NCCN12)c1ccccc1
186 to 188 °C
Cl.O=C(NC1=Nc2ccc(F)cc2C2=NCCN12)c1ccc2[nH]cnc2c1
> 300 °C
COc1cc(OC)c2c(c1)C1=NCCN1C(/C=C(\O)c1cccnc1)=N2
218 °C

Give one value of melting point per listed molecule.
1. O=C(NC1=Nc2ccccc2C2=NCCN12)c1ccc(-n2cccn2)cc1
2. COc1c(C)ccc2c1N=C(/C=C(\O)c1ccc3[nH]cnc3c1)N1CCN=C21.Cl
3. Cc1ccc2c(c1)C1=NCCN1C(NC(=O)c1cccnc1)=N2.Cl

Reply:
1: 209 to 211 °C; 2: 270 °C; 3: > 290 °C

Dear colleague, could you send me melting point for each of the items below? Thanks.
1. CC(=O)Nc1ccc(/C(O)=C/C2=Nc3cc(N4CCN(C)CC4)ccc3C3=NCCN23)cn1
2. Cc1cc(Br)c2c(c1)C1=NCCN1C(NC(=O)c1cccnc1)=N2.Cl
3. COc1ccc2c(c1)N=C(NC(=O)c1ccc3[nH]cnc3c1)N1CCN=C21.Cl
4. Cl.O/C(=C\C1=Nc2c(cccc2C(F)(F)F)C2=NCCN12)c1cccnc1

Reply:
292 °C (dec.)
220 °C
233 °C
> 290 °C

List the reported melting point of each molecule below.
1. Cc1ccc2c(c1)N=C(NC(=O)c1ccc3[nH]cnc3c1)N1CCN=C21.Cl
2. O=C(NC1=Nc2ccccc2C2=NCCN12)c1ccccc1F
3. COc1cc(OC)c2c(c1)C1=NCCN1C(/C=C(\O)c1cccnc1)=N2.Cl
4. O=[N+]([O-])c1ccc2c(c1)C1=NCCN1C(/C=C(\O)c1ccccc1)=N2
5. O=[N+]([O-])c1ccc(/C(O)=C/C2=Nc3ccccc3C3=NCCN23)cc1

Reply:
1. 295 °C
2. 202 to 204 °C
3. 290 °C (dec.)
4. 259 to 262 °C
5. 240 to 248 °C

* * *

# tgt: Recombinant human PI3Kγ (full length human PI3K p110γ) (Homo sapiens)
# Construct: full length human PI3K p110γ fused with a His6-tag at the C-terminus; His6 (C); purchased ALEXIS BIOCHEMICALS #201-055-C010; host or cells: S. frugiperda 9 insect cells
# measurementDescription: Kinase assay of PI3Kγ (solid-phase lipid kinase assay)
# Assay type: biochemical
# assayConditions: activity class of IC50; read-out: In vitro PI3K-γ inhibitory activity
Counter-ions that a name gives are not always drawn.
outcomeMeasure: IC50

Examples from the recorded data:
COC(=O)CCCOc1ccc2c(c1OC)N=C(/C=C(\O)c1cccnc1)N1CCN=C21 [Example 1-5]
< 100 nM
COCOc1ccc2c(c1OC)N=C(/C=C(\O)c1cccnc1)N1CCN=C21 [Example 1-3]
100 to 500 nM
O=C(NC1=Nc2ccccc2C2=NCCN12)c1cccnc1 [Example 2-1]
< 100 nM
O=C(NC1=Nc2cc(OCCn3cccc3)ccc2C2=NCCN12)c1cccnc1 [Example 2-6]
100 to 500 nM
COc1cc2c(cc1OC)C1=NCCN1C(/C=C(\O)c1cccnc1)=N2 [Example 1-1]
< 100 nM
COc1c(OCCCC(=O)O)ccc2c1N=C(/C=C(\O)c1cccnc1)N1CCN=C21 [Example 1-6]
< 100 nM
O/C(=C\c1nc2ccccc2c2nccn12)c1cccs1 [Example 3-1]
> 2000 nM
O=C(Nc1nc2ccccc2c2nccn12)c1cccnc1 [Example 4-1]
500 to 2000 nM

Pending molecule:
Query: Quick one: IC50 for COc1c(O)ccc2c1N=C(/C=C(\O)c1cccnc1)N1CCN=C21 [Example 1-4, hydrochloride] ?
Reply: < 100 nM

* * *

# tgt: Recombinant human PI3Kγ (full length human PI3K p110γ) (Homo sapiens, UniProt P48736)
# Construct: full length human PI3K p110γ fused with a His6-tag at the C-terminus; His6 (C); purchased ALEXIS BIOCHEMICALS #201-055-C010; host or cells: S. frugiperda 9 insect cells
# measurementDescription: Kinase assay of PI3Kγ (solid-phase lipid kinase assay)
# Assay type: biochemical
# assayConditions: Table 1, isozyme not given; read-out: in vitro
outcomeMeasure: IC50

Look over these answered cases.
O/C(=C\C1=Nc2ccccc2C2=NCCN12)c1cccc(Cl)c1
> 2000 nM
Cc1ccc2c(c1)N=C(/C=C(\O)c1cccnc1)N1CCN=C21
100 to 500 nM
CC(=O)Nc1ccc(/C(O)=C/C2=Nc3ccccc3C3=NCCN23)cn1.Cl
< 100 nM
O/C(=C\C1=Nc2ccccc2C2=NCCN12)c1ccoc1
100 to 500 nM
Cl.NCC(=O)Oc1ccc2c(c1)C1=NCCN1C(/C=C(\O)c1cccnc1)=N2
< 100 nM

Shifting focus to the molecule that follows.
Query: So what's the measured IC50 for this one? `CC(C)(C)OC(=O)COc1cccc2c1N=C(/C=C(\O)c1cccnc1)N1CCN=C21.Cl`
Reply: < 100 nM
